Numbers sourced from ChEMBL document CHEMBL3994645.

- assay-notes: Selectivity index, ratio of EC50 for mouse NIH/3T3 cells to EC50 for human MCF7 cells
- Type: functional
Answer each item with its documented Ratio EC50.
No unit in the answer, please; the number alone is enough.

Please list Ratio EC50 recorded for the molecule "CC(=O)NC1=CC(=O)C(NCc2ccccc2)=CC1=O"
0.7

Annotate the molecule "O=C1C=C(NC(=O)c2ccccc2)C(=O)C=C1NCCN1CCOCC1" with its measured Ratio EC50.
1.2

Identify measured Ratio EC50 associated with "CC(=O)NC1=CC(=O)C(NCCc2ccccn2)=CC1=O"
2.9

Output measured Ratio EC50 for this item: "O=C1C=C(NC(=O)c2ccccc2)C(=O)C=C1NCCN1CCCC1"
1.3

Give recorded Ratio EC50. "CSCC[C@@H](NC1=CC(=O)C(NC(C)=O)=CC1=O)C(=O)O"
0.5

For the molecule "O=C1C=C(NC(=O)c2ccccc2)C(=O)C=C1NCCN1CCCCC1" , report Ratio EC50.
1.4

For the molecule "CC(=O)NC1=CC(=O)C(NCCN2CCCC2)=CC1=O" , give its measured Ratio EC50 value.
1.7

// Input: "CC(=O)NC1=CC(=O)C(NCCN2CCCCC2)=CC1=O" . Output its Ratio EC50 only.
1.5

Tell me its Ratio EC50 given "CC(=O)NC1=CC(=O)C(N[C@H](C(=O)O)C(C)C)=CC1=O" as the entry.
0.9
